# System: Staphylococcus epidermidis
# PROTOCOL: Minimum inhibitory concentration against Staphylococcus epidermidis ATCC 12228
# Assay type: functional
READOUT_LABEL: MIC (µg/mL)
Respond with the bare value in µg/mL.

Look over these answered cases.
{"SMILES_RECORD": "N[C@H]1C(=O)N[C@@H]2Cc3ccc(c(Cl)c3)Oc3cc4cc(c3O)Oc3ccc(cc3Cl)[C@@H](O)[C@@H]3NC(=O)[C@H](NC(=O)[C@@H]4NC(=O)[C@@H](NC2=O)c2cc(O)cc(c2)Oc2cc1ccc2O)c1ccc(O)c(c1)-c1c(O)cc(O)cc1[C@@H](C(=O)N1CCNCCNCCNCCNCCNCC1)NC3=O", "MEASURED_ON": "Staphylococcus epidermidis", "UNIT_NAME": "µg/mL", "RECORDED_MEASUREMENT": 0.125}
{"SMILES_RECORD": "CC(=O)N[C@@H]1[C@H](O[C@@H]2c3ccc(c(Cl)c3)Oc3cc4cc(c3O[C@@H]3O[C@@H](CO)[C@@H](O)[C@H](O)[C@@H]3NC(=O)CCCCCCC(C)C)Oc3ccc(cc3Cl)C[C@H]3NC(=O)[C@H](N)c5ccc(O)c(c5)Oc5cc(O)cc(c5)[C@H](NC3=O)C(=O)N[C@H]4C(=O)N[C@H]3C(=O)N[C@@H]2C(=O)N[C@H](C(=O)N2CCCCN(CCCN(C)C)CCCC2)c2cc(O)cc(O[C@H]4O[C@H](CO)[C@@H](O)[C@@H](O)[C@@H]4O)c2-c2cc3ccc2O)O[C@@H](CO)[C@@H](O)[C@@H]1O", "MEASURED_ON": "Staphylococcus epidermidis", "UNIT_NAME": "µg/mL", "RECORDED_MEASUREMENT": 0.063}

--- query ---
# returns recorded MIC (system: Staphylococcus epidermidis) for CC(=O)N[C@@H]1[C@H](O[C@@H]2c3ccc(c(Cl)c3)Oc3cc4cc(c3O[C@@H]3O[C@@H](CO)[C@@H](O)[C@H](O)[C@@H]3NC(=O)CCCCCCC(C)C)Oc3ccc(cc3Cl)C[C@H]3NC(=O)[C@H](N)c5ccc(O)c(c5)Oc5cc(O)cc(c5)[C@H](NC3=O)C(=O)N[C@H]4C(=O)N[C@H]3C(=O)N[C@@H]2C(=O)N[C@H](C(=O)NCCNCCNCCNCCNCCN)c2cc(O)cc(O[C@H]4O[C@H](CO)[C@@H](O)[C@@H](O)[C@@H]4O)c2-c2cc3ccc2O)O[C@@H](CO)[C@@H](O)[C@@H]1O
0.063

----------
# Test system: Streptococcus pneumoniae
# PROTOCOL: Minimum inhibitory concentration against Streptococcus pneumoniae L 44
# Type: functional
Listing: MIC of selected compounds
API: value field is a number in µg/mL; no unit string.

{"SMILES_RECORD": "CC(=O)N[C@@H]1[C@H](O[C@@H]2c3ccc(c(Cl)c3)Oc3cc4cc(c3O[C@@H]3O[C@@H](CO)[C@@H](O)[C@H](O)[C@@H]3NC(=O)CCCCCCC(C)C)Oc3ccc(cc3Cl)C[C@H]3NC(=O)[C@H](N)c5ccc(O)c(c5)Oc5cc(O)cc(c5)[C@H](NC3=O)C(=O)N[C@H]4C(=O)N[C@H]3C(=O)N[C@@H]2C(=O)N[C@H](C(=O)NCCN(CCN)CCN)c2cc(O)cc(O[C@H]4O[C@H](CO)[C@@H](O)[C@@H](O)[C@@H]4O)c2-c2cc3ccc2O)O[C@@H](CO)[C@@H](O)[C@@H]1O", "MIC, µg/mL": 0.063}

Query compound follows.
// fetch Streptococcus pneumoniae MIC for NCCCCNCCCNC(=O)[C@H]1NC(=O)[C@H]2NC(=O)[C@H](NC(=O)[C@@H]3NC(=O)[C@H]4NC(=O)[C@@H](Cc5ccc(c(Cl)c5)Oc5cc3cc(c5O)Oc3ccc(cc3Cl)[C@H]2O)NC(=O)[C@H](N)c2ccc(O)c(c2)Oc2cc(O)cc4c2)c2ccc(O)c(c2)-c2c(O)cc(O)cc21
0.125

----------
# Test system: Staphylococcus aureus
# PROTOCOL: Minimum inhibitory concentration against Staphylococcus aureus L 165
# Assay type: functional
READOUT_LABEL: MIC
Reply with the number, then its unit.

Record excerpt, results attached:
{"SMILES_RECORD": "N[C@H]1C(=O)N[C@@H]2Cc3ccc(c(Cl)c3)Oc3cc4cc(c3O)Oc3ccc(cc3Cl)[C@@H](O)[C@@H]3NC(=O)[C@H](NC(=O)[C@@H]4NC(=O)[C@@H](NC2=O)c2cc(O)cc(c2)Oc2cc1ccc2O)c1ccc(O)c(c1)-c1c(O)cc(O)cc1[C@@H](C(=O)NCCN1CCCCNCCCC1)NC3=O", "READOUT_LABEL": "MIC", "RECORDED_MEASUREMENT": "0.125 µg/mL"}
{"SMILES_RECORD": "CC(=O)N[C@@H]1[C@H](O[C@@H]2c3ccc(c(Cl)c3)Oc3cc4cc(c3O[C@@H]3O[C@@H](CO)[C@@H](O)[C@H](O)[C@@H]3NC(=O)CCCCCCC(C)C)Oc3ccc(cc3Cl)C[C@H]3NC(=O)[C@H](N)c5ccc(O)c(c5)Oc5cc(O)cc(c5)[C@H](NC3=O)C(=O)N[C@H]4C(=O)N[C@H]3C(=O)N[C@@H]2C(=O)N[C@H](C(=O)NCCCNCCCNCCCN)c2cc(O)cc(O[C@H]4O[C@H](CO)[C@@H](O)[C@@H](O)[C@@H]4O)c2-c2cc3ccc2O)O[C@@H](CO)[C@@H](O)[C@@H]1O", "READOUT_LABEL": "MIC", "RECORDED_MEASUREMENT": "0.125 µg/mL"}
{"SMILES_RECORD": "CC(=O)N[C@@H]1[C@H](O[C@@H]2c3ccc(c(Cl)c3)Oc3cc4cc(c3O[C@@H]3O[C@@H](CO)[C@@H](O)[C@H](O)[C@@H]3NC(=O)CCCCCCC(C)C)Oc3ccc(cc3Cl)C[C@H]3NC(=O)[C@H](N)c5ccc(O)c(c5)Oc5cc(O)cc(c5)[C@H](NC3=O)C(=O)N[C@H]4C(=O)N[C@H]3C(=O)N[C@@H]2C(=O)N[C@H](C(=O)NCCNCCNCCNCCNCCN)c2cc(O)cc(O[C@H]4O[C@H](CO)[C@@H](O)[C@@H](O)[C@@H]4O)c2-c2cc3ccc2O)O[C@@H](CO)[C@@H](O)[C@@H]1O", "READOUT_LABEL": "MIC", "RECORDED_MEASUREMENT": "0.25 µg/mL"}

What value of MIC has been reported for the following compound? CNCCCN(C)C(=O)[C@H]1NC(=O)[C@H]2NC(=O)[C@H](NC(=O)[C@@H]3NC(=O)[C@H]4NC(=O)[C@@H](Cc5ccc(c(Cl)c5)Oc5cc3cc(c5O)Oc3ccc(cc3Cl)[C@H]2O)NC(=O)[C@H](N)c2ccc(O)c(c2)Oc2cc(O)cc4c2)c2ccc(O)c(c2)-c2c(O)cc(O)cc21
0.063 µg/mL

Fill in the blank: the reported MIC of NCCNCCCNCCNC(=O)[C@H]1NC(=O)[C@H]2NC(=O)[C@H](NC(=O)[C@@H]3NC(=O)[C@H]4NC(=O)[C@@H](Cc5ccc(c(Cl)c5)Oc5cc3cc(c5O)Oc3ccc(cc3Cl)[C@H]2O)NC(=O)[C@H](N)c2ccc(O)c(c2)Oc2cc(O)cc4c2)c2ccc(O)c(c2)-c2c(O)cc(O)cc21 is ____.
0.063 µg/mL

----------
# System: Staphylococcus epidermidis
# PROTOCOL: Minimum inhibitory concentration against Staphylococcus epidermidis ATCC 12228
# Format: functional
READOUT_LABEL: MIC
# include the unit after the value

# example entries with known answers
{"SMILES_RECORD": "CC(=O)N[C@@H]1[C@H](O[C@@H]2c3ccc(c(Cl)c3)Oc3cc4cc(c3O[C@@H]3O[C@@H](CO)[C@@H](O)[C@H](O)[C@@H]3NC(=O)CCCCCCC(C)C)Oc3ccc(cc3Cl)C[C@H]3NC(=O)[C@H](N)c5ccc(O)c(c5)Oc5cc(O)cc(c5)[C@H](NC3=O)C(=O)N[C@H]4C(=O)N[C@H]3C(=O)N[C@@H]2C(=O)N[C@H](C(=O)NCCCNCCCNCCCN)c2cc(O)cc(O[C@H]4O[C@H](CO)[C@@H](O)[C@@H](O)[C@@H]4O)c2-c2cc3ccc2O)O[C@@H](CO)[C@@H](O)[C@@H]1O", "MIC": "0.063 µg/mL"}
{"SMILES_RECORD": "CNCCCN(C)C(=O)[C@H]1NC(=O)[C@H]2NC(=O)[C@H](NC(=O)[C@@H]3NC(=O)[C@H]4NC(=O)[C@@H](Cc5ccc(c(Cl)c5)Oc5cc3cc(c5O)Oc3ccc(cc3Cl)[C@H]2O)NC(=O)[C@H](N)c2ccc(O)c(c2)Oc2cc(O)cc4c2)c2ccc(O)c(c2)-c2c(O)cc(O)cc21", "MIC": "0.063 µg/mL"}

Would you kindly look at the next entry?
Given the compound CC(=O)N[C@@H]1[C@H](O[C@@H]2c3ccc(c(Cl)c3)Oc3cc4cc(c3O[C@@H]3O[C@@H](CO)[C@@H](O)[C@H](O)[C@@H]3NC(=O)CCCCCCC(C)C)Oc3ccc(cc3Cl)C[C@H]3NC(=O)[C@H](N)c5ccc(O)c(c5)Oc5cc(O)cc(c5)[C@H](NC3=O)C(=O)N[C@H]4C(=O)N[C@H]3C(=O)N[C@@H]2C(=O)N[C@H](C(=O)O)c2cc(O)cc(O[C@H]4O[C@H](CO)[C@@H](O)[C@@H](O)[C@@H]4O)c2-c2cc3ccc2O)O[C@@H](CO)[C@@H](O)[C@@H]1O , what is its reported MIC?
0.125 µg/mL

Cited source for all entries: ChEMBL document CHEMBL1125337
